Test system: DMS-114
Experimental details: NCI tumour cell line growth inhibition, 48 h
Calls of active or inactive are those of the source. Cut-off read from the data, not from the text of the source: active = GI50 up to about 1.1 µM and inactive = higher.
Below: a set of entries, each annotated with reported GI50.

{"Molecule": "O=S1(=O)COc2ccccc2-c2ncncc21", "GI50": "> 100 µM (inactive)"}
{"Molecule": "COC(=O)/C(=N/NC(N)=O)C(C(=O)OC)C(=O)C(=O)Nc1ccc(Cl)cc1 (stereo not given)", "GI50": "> 71.8 µM (inactive)"}
{"Molecule": "CCC/C=C1\\CCC(CN(C)C)C1=O (stereo not given)", "GI50": "15.6 µM (inactive)"}
{"Molecule": "CN1N=C2c3ccccc3CC[C@H]2C1c1cccc(O)c1 (stereo not given in full)", "GI50": "> 100 µM (inactive)"}
{"Molecule": "CCCCCCCCCCCCCB(O)O", "GI50": "65.5 µM (inactive)"}
{"Molecule": "COC(=O)[C@@H]1C(=O)O[C@@H](c2ccc(OC)c(OC)c2OC)[C@@H]1C(=O)OC.COC(=O)[C@H]1C(=O)O[C@@H](c2ccc(OC)c(OC)c2OC)[C@@H]1C(=O)OC", "GI50": "> 100 µM (inactive)"}
{"Molecule": "Oc1nnc(CNc2ccc(Cl)cc2Cl)c2ccccc12", "GI50": "13.9 µM (inactive)"}
{"Molecule": "CCN(CC)C(=O)Cc1[nH][nH]c(=O)c1C(=O)N(CC)CC", "GI50": "> 100 µM (inactive)"}
{"Molecule": "COC(=O)CC1N/C(=N\\C#N)N(CCc2c[nH]c3ccccc23)C1=O (stereo not given)", "GI50": "> 100 µM (inactive)"}
{"Molecule": "CC(=O)OC1COC(Nc2ccc(C(C)=O)cc2)C(OC(C)=O)C1OC(C)=O (stereo not given)", "GI50": "> 100 µM (inactive)"}

Data provenance is ChEMBL document CHEMBL1201862.
